List of ECL signal values.
- Experimental Target: T1, rHuman IGF-1 sR, (IGF-1 sR), CF (R&D Systems Cat#391-GR) (human, UniProt P08069 31-932)
- T1 construct: Bought recombinant soluble receptor; The column head prints only 'IGF-1'; also called insulin-like growth factor-1 soluble receptor
- Experiment Notes: ECL multispot (MSD), antigen spotted, Fab in solution;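 note: purified Fab incubated 1 h at 20 °C on antigen-spotted wells, bound Fab detected via TAG detection antibody, ECL compared with each well's blank, ratio of 4 or above scored as hit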
// return a plain number; no unit text

Reference set (3 entries):
Binder	ECL signal
Fab VH1-46_IGHD6-6*01_IGHJ1*01 S102A/S103P/S104F/H111F (APFF) & L6_IGKJ1*01 S30L (Fab, V domains shown, Fab; VH cloned into Plasmid A (CH1, His6 and Flag tags) and VL into Plasmid C (kappa CL); also called APFF / S30L) VH: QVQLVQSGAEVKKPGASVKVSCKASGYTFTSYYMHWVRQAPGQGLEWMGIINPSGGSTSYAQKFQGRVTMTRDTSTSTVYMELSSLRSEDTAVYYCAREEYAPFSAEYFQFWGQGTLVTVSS VL: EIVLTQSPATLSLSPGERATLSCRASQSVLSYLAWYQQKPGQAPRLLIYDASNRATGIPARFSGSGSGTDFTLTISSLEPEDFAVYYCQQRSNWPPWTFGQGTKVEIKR	332
Fab VH1-46_IGHD6-6*01_IGHJ1*01 S102A/S103P/S104F/H111F (APFF) & L6_IGKJ1*01 S28W (Fab, V domains shown, Fab; VH cloned into Plasmid A (CH1, His6 and Flag tags) and VL into Plasmid C (kappa CL); also called APFF / S28W) VH: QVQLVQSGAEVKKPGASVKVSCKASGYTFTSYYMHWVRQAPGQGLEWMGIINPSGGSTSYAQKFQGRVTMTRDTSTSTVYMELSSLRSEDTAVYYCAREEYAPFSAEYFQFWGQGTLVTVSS VL: EIVLTQSPATLSLSPGERATLSCRASQWVSSYLAWYQQKPGQAPRLLIYDASNRATGIPARFSGSGSGTDFTLTISSLEPEDFAVYYCQQRSNWPPWTFGQGTKVEIKR	489
Fab VH1-46_IGHD6-6*01_IGHJ1*01 S102A/S103P/S104F/H111F (APFF) & L6_IGKJ1*01 S28R (Fab, V domains shown, Fab; VH cloned into Plasmid A (CH1, His6 and Flag tags) and VL into Plasmid C (kappa CL); also called APFF / S28R) VH: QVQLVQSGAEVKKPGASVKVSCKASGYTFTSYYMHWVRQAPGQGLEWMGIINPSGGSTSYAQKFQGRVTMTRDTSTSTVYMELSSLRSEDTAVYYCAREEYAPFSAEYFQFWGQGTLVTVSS VL: EIVLTQSPATLSLSPGERATLSCRASQRVSSYLAWYQQKPGQAPRLLIYDASNRATGIPARFSGSGSGTDFTLTISSLEPEDFAVYYCQQRSNWPPWTFGQGTKVEIKR	437

Which ECL signal value belongs to Fab VH1-46_IGHD6-6*01_IGHJ1*01 S102A/S103P/S104F/H111F (APFF) & L6_IGKJ1*01 S28H (Fab, V domains shown, Fab; VH cloned into Plasmid A (CH1, His6 and Flag tags) and VL into Plasmid C (kappa CL); also called APFF / S28H) VH: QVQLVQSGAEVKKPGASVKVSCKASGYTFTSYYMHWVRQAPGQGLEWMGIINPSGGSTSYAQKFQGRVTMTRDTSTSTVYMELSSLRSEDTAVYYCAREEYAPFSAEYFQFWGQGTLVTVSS VL: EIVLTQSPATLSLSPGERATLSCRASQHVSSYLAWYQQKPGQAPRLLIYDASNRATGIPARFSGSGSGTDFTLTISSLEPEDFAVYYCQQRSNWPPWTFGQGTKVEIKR ?
355

Another: Fab VH1-46_IGHD6-6*01_IGHJ1*01 S102A/S103P/S104F/H111F (APFF) & L6_IGKJ1*01 S30D (Fab, V domains shown, Fab; VH cloned into Plasmid A (CH1, His6 and Flag tags) and VL into Plasmid C (kappa CL); also called APFF / S30D) VH: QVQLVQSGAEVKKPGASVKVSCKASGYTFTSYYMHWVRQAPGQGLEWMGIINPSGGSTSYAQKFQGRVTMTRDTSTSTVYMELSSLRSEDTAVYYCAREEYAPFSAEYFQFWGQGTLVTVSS VL: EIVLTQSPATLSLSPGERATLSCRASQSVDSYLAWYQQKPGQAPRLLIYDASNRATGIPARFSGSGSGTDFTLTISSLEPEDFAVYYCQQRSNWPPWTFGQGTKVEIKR
357

Another: Fab VH1-46_IGHD6-6*01_IGHJ1*01 S102A/S103P/S104F/H111F (APFF) & L6_IGKJ1*01 S28I (Fab, V domains shown, Fab; VH cloned into Plasmid A (CH1, His6 and Flag tags) and VL into Plasmid C (kappa CL); also called APFF / S28I) VH: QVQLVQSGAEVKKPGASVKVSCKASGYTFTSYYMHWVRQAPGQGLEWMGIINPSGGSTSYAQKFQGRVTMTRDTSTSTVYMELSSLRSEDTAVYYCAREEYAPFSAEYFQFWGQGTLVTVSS VL: EIVLTQSPATLSLSPGERATLSCRASQIVSSYLAWYQQKPGQAPRLLIYDASNRATGIPARFSGSGSGTDFTLTISSLEPEDFAVYYCQQRSNWPPWTFGQGTKVEIKR
353

Another: Fab VH1-46_IGHD6-6*01_IGHJ1*01 S102A/S103P/S104F/H111F (APFF) & L6_IGKJ1*01 S30C (Fab, V domains shown, Fab; VH cloned into Plasmid A (CH1, His6 and Flag tags) and VL into Plasmid C (kappa CL); also called APFF / S30C) VH: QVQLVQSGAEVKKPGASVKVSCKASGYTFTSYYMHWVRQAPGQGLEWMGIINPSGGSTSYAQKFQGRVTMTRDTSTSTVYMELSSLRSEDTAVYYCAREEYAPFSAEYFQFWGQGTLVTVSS VL: EIVLTQSPATLSLSPGERATLSCRASQSVCSYLAWYQQKPGQAPRLLIYDASNRATGIPARFSGSGSGTDFTLTISSLEPEDFAVYYCQQRSNWPPWTFGQGTKVEIKR
1030
